Cited source for all entries: ChEMBL document CHEMBL1811838

Test: Toxicity in C57BL/6J mouse splenic lymphocytes after 72 hrs by Alamar blue Assay
Format: cell-based
Settings: splenic lymphocyte
Measured metric: IC50

CCCCCCc1cc(CCC)c(/C=C2\N=C(c3ccc[nH]3)C=C2OC)[nH]1 = < 125 nM
COC1=CC(c2ccc[nH]2)=N/C1=C\c1[nH]c(Cc2ccc(Br)cc2)cc1Cc1ccc(F)cc1 = < 125 nM

Would you kindly look at the next entry?
In plain terms, COC1=CC(c2cc3ccccc3[nH]2)=N/C1=C\c1[nH]c(C)cc1C [OBATOCLAX] has a documented IC50 of < 125 nM
